Each recorded value in this set is attributed to ChEMBL document CHEMBL2016562.

assay: Half life in Sprague-Dawley rat liver microsomes; type: ADME, Microsome
READOUT TYPE: half-life (h)

I = NS(=O)(=O)c1ccc(CNc2nc(NCC(F)(F)F)c3nc(-c4ccc(F)nc4)ccc3n2)cc1
II = COc1ccc(-c2ccc3nc(NCc4ccc(S(N)(=O)=O)cc4)nc(NC4(C#N)CC4)c3n2)cn1
-- ask Pick one: I or II . Which one has the lower reported half-life? Bench note: the answer is the label of the chosen record.
-- reply II
(II: 1.62 h, I: 4.63 h)

----------
Reported half-life values follow for various compounds
experiment: Half life in Sprague-Dawley rat liver microsomes; type: ADME, Microsome

Some entries whose results are on file:
In [3]: df
Out[3]:
                               input_smiles  endpoint_value
0  NS(=O)(=O)c1ccc(CNc2nc(NCC(F)(F)F)c3nc(-c4ccc(-n5cncn5)cc4)ccc3n2)cc1        > 6.58 h
1  N#CC1(Nc2nc(NCc3ccc(S(N)(=O)=O)cc3)nc3ccc(-c4ccc(F)nc4)nc23)CC1        > 6.58 h
2  FC(F)(F)CNc1nc(NCc2ccc(-n3cncn3)cc2)nc2ccc(-c3ccc(OC4CC4)nc3)nc12        > 6.58 h
3  NS(=O)(=O)c1ccc(CNc2nc(NCC(F)(F)F)c3nc(-c4ccc(NC(=O)C5CC5)cc4)ccc3n2)cc1          1.17 h
4  NS(=O)(=O)c1cc(Cl)cc(CNc2nc(NC3(C(F)(F)F)CC3)c3nc(-c4ccc(F)cc4)ccc3n2)c1        > 6.58 h
5  CC1(Oc2nc(NCc3ccc(-n4cncn4)cc3)nc3ccc(-c4ccc(OC5CC5)nc4)nc23)CC1        > 6.58 h

-- ask Assign half-life to the following record: `COc1ccc(-c2ccc3nc(N[C@H](C)c4ccc(-n5cncn5)cc4)nc(NCC(F)(F)F)c3n2)cc1S(C)(=O)=O`
-- reply 5.85 h

-- ask Assign half-life to the following record: `C[C@@H](Nc1nc(NC2(C(F)(F)F)CC2)c2nc(-c3cccc(S(C)(=O)=O)c3)ccc2n1)c1ccc(-n2cncn2)cc1`
-- reply 3.92 h

-- ask Assign half-life to the following record: `NS(=O)(=O)c1cc(CNc2nc(NCC(F)(F)F)c3nc(-c4ccc(NC(=O)C5(C(F)(F)F)CC5)cc4)ccc3n2)cc(C(F)(F)F)c1`
-- reply > 6.58 h

----------
test: Volume of distribution at steady state in Sprague-Dawley rat after 30 mins; format: ADME, organism-based; conditions: in vivo, read-out: Vdss
READOUT TYPE: Vd (L/kg)

>>> print(df.to_string())
                               input_smiles  endpoint_value
0  NS(=O)(=O)c1ccc(CNc2nc(NCC(F)(F)F)c3nc(-c4ccc(F)nc4)ccc3n2)cc1               1

1 = NS(=O)(=O)c1cc(Cl)cc(CNc2nc(NC3(C(F)(F)F)CC3)c3nc(-c4ccc(F)cc4)ccc3n2)c1
2 = N#CC1(Nc2nc(NCc3ccc(S(N)(=O)=O)cc3)nc3ccc(-c4ccc(F)nc4)nc23)CC1
3 = NS(=O)(=O)c1ccc(CNc2nc(NCC(F)(F)F)c3nc(-c4ccc(F)cc4)ccc3n2)cc1
-- ask Order by Vd, ascending. Form entry: labels listed in requested order.
-- reply 2, 3, 1
